target: T1, B7-H3 on B7-H3-expressing CHO cells (Genescript) (UniProt Q5ZPR3 29-534, limits assumed)
T1 construct: whole, on cells; also called CHO-K1/B7-H3; MFI B7-H3
T1 sequence (looked up): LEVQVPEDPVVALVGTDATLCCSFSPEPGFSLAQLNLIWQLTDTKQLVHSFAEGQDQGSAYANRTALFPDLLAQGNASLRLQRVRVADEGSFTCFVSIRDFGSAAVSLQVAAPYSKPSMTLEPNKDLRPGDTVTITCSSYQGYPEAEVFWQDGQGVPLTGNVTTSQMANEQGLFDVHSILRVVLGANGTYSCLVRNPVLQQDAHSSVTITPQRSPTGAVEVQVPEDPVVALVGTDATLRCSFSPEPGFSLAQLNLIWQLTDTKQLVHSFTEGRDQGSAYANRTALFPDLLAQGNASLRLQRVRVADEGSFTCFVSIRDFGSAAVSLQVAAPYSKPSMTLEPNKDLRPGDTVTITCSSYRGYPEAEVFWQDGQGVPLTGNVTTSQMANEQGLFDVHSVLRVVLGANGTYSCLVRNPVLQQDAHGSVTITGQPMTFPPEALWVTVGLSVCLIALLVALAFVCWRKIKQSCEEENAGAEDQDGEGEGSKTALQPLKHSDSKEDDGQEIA
assay summary: flow cytometry, B7-H3-expressing CHO cells, 10 ug/ml
Parameter: MFI @ 10 ug/ml. Scope: all listed entries.

binder	MFI @ 10 ug/ml [MFI]
40511p1.1.D8 (scFv, V domains shown, Tested as scFv-Fc (Expi293 supernatant)) VH: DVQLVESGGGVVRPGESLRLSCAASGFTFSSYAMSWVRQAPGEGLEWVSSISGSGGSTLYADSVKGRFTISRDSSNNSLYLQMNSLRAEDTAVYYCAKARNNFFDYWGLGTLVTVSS VL: EIVLTQSPGTLTLSPGERATLSCRASRSILTSLAWYQQRPGQAPRLLIYGANSRATGIPDRFSGSGSGTEFTLTISSLQSEDFAVYYCQQYYDWLTITFGGGTKVEIK	79200
40511p1.1.A1 (scFv, V domains shown, Tested as scFv-Fc (Expi293 supernatant)) VH: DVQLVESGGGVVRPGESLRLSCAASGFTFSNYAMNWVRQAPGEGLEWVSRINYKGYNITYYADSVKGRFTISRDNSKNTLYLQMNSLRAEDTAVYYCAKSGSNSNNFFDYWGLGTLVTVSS VL: EIVLTQSPGTLSVSPGERATLSCRASQSVNSKLAWYQQRPGQAPRLLIYDASSRATGIPDRFSGSGSGTDFTLTISRLEPEDFAVYYCQQYKNWPPLTFGGGTKVEIK	34100
40579p1.B8 (scFv, V domains shown, Tested as scFv-Fc (Expi293 supernatant)) VH: EVQLLESGGGLVQPGGSLRLSCAASGFTFSDYYMSWVRQAPGKGLEWVSGISMSSTIYYADSVKGRFTISRDNSKNTLYLQMNSLRAEDTAVYYCARHRSPYQYRSMDVWGQGTTVTVSS VL: EIVLTQSPGTLSLSPGERATLSCRASQSVNSKLAWYQQKPGQPPSLLIYDASRRATGIPDRFSGSGSGTEFTLTISSLQSEDFAVYYCQQYNNWPPLTFGGGTKVEIK	85500
